Target: T1, Mutant Human HTT Exon 1 48Q (GST) (human)
T1 construct: recombinant His- and GST-tagged fusion; also called HTT Exon 1 Q48; 48Q HTT Exon-1
T1 sequence (chain, as listed by the source mutant limits assumed): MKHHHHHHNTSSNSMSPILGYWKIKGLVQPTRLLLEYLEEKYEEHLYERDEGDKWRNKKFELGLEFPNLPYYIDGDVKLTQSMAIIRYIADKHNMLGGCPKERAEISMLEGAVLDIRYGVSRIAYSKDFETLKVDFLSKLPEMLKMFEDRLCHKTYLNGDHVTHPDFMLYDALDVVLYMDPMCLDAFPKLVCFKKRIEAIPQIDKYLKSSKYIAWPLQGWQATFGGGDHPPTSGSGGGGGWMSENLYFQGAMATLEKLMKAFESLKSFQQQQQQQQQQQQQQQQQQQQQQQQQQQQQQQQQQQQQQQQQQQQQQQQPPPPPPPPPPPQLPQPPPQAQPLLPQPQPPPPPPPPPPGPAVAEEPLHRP
Assay: HTT sandwich ELISA, experiment 1 (133 nM starting concentration)
Reported property: EC50 (nM)
Report only the number, with the unit nM understood.

ATL_0006199 (antibody, V domains shown, expressed in IgG1 format; also called ATL_6199) VH: EVQLVESGGGLVKPGGSLRLSCAASGFTFNKAWMSWVRQAPGKGLEWVGRIKSGIDAGTTDYAAPVKGRFTISRDDSKNTLYLQMNSLKTEDTAVYWCSPPPYYYYYGLDVWGQGTTVTVSS VL: QSALTQPRSVSGSPGQSVTISCTGTSSDVGSYNLVSWYQQHPGKAPKLMIYEVNKRPSGVPDRFSGSKSGATASLTISGLQAEDEADYYCGSYAGTANVFGTGTKVTVL = 15

**Query** For ATL_0006205 (antibody, IgG1, V domains shown, IgG1 format; also called ATL_6205) VH: EVQLVESGGGLVKPGGSLRLSCAASGFTFNKAWMSWVRQAPGKGLEWVGRIKSGIDAGTTDYAAPVKGRFTISRDDSKNTLYLQMNSLKTEDTAVYWCVPPPYYYYYGLDVWGQGTTVTVSS VL: QSALTQPRSVSGSPGQSVTISCTGTSSDVGSYNLVSWYQQHPGKAPKLMIYEVNKRPSGVPDRFSGSKSGATASLTISGLQAEDEADYYCVSYAGTANVFGTGTKVTVL , what is its reported EC50?
**Result** 13.4

**Query** For ATL_0006200 (antibody, V domains shown, expressed in IgG1 format; also called ATL_6200) VH: EVQLVESGGGLVKPGGSLRLSCAASGFTFNKAWMSWVRQAPGKGLEWVGRIKSGIDAGTTDYAAPVKGRFTISRDDSKNTLYLQMNSLKTEDTAVYYCVPPPYYYYYGLDVWGQGTTVTVSS VL: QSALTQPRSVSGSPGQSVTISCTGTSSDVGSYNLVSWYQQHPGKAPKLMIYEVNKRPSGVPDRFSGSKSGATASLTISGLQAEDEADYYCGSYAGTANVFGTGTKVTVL , what is its reported EC50?
**Result** 12.8

**Query** For ATL_0006194 (antibody, V domains shown, expressed in IgG1 format; also called ATL_6194; ATL6194) VH: EVQLVESGGGLVKPGGSLRLSCAASGFTFNKAWMSWVRQAPGKGLEWVGRIKSGIDAGTTDYAAPVKGRFTISRDDSKNTLYLQMNSLKTEDTAVYYCVPPPYYYYYGLDVWGQGTTVTVSS VL: QSALTQPRSVSGSPGQSVTISCTGTSSDVGSYNLVSWYQQHPGKAPKLMIYEVNKRPSGVPDRFSGSKSGATASLTISGLQAEDEADYYCVSYAGTANVFGTGTKVTVL , what is its reported EC50?
**Result** 19.8

From: patent US20260209320A1
